The values you see were collected from patent US4470840A.

Test system: Hybrid Sweet Corn Seedlings (cv. Silver Queen)
Assay: Greenhouse trial: dry weight and water uptake of seedlings after foliar spraying
Assay type: in vivo
Conditions: 14-day old seedlings; metal ion 9 mM (none in the last line) with 1-triacontanol 0.1 mg/liter; pH 8 to 10; Formulation 4
Method: In general, greenhouse trials were conducted as follows: eight to twelve seeds were sown per pot in Peat-Lite® Mix and received an average of 100 ml of water per day. […] It is particularly advantageous to arrange each of the potted plants in size range categories corresponding to the number of replications used. For example, if five replications are employed, plants are divided into five size categories, normally measured by the height of the plants. […]
Listed compounds paired with reported % increase (dry weight)

Consider the worked cases shown below.
{"item_smiles": "[Mg+2]", "% increase (dry weight)": "+73%"}
{"item_smiles": "[Zn+2]", "% increase (dry weight)": "+38%"}
{"item_smiles": "[Ca+2]", "% increase (dry weight)": "+50%"}
{"item_smiles": "[Sr+2]", "% increase (dry weight)": "+81%"}

// query Need % increase (dry weight), item [Pb+2]
// result +81%

// query Need % increase (dry weight), item CCCCCCCCCCCCCCCCCCCCCCCCCCCCCCO
// result +21%
